Listed next: entries and their corresponding IC50.
# SYSTEM NAME: Angiotensin II receptor (Rattus norvegicus, UniProt P29089+P25095+P35351)
# Sequence (P29089 whole entry): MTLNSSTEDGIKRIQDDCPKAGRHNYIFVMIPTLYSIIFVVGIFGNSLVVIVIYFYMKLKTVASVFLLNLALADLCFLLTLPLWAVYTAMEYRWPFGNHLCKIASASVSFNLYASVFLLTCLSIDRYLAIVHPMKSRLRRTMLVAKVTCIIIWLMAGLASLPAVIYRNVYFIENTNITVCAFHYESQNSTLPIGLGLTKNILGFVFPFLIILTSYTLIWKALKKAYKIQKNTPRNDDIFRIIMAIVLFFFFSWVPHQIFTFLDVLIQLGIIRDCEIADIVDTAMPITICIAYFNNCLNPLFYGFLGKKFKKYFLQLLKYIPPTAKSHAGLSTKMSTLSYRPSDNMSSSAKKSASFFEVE
# Sequence (P25095 whole entry): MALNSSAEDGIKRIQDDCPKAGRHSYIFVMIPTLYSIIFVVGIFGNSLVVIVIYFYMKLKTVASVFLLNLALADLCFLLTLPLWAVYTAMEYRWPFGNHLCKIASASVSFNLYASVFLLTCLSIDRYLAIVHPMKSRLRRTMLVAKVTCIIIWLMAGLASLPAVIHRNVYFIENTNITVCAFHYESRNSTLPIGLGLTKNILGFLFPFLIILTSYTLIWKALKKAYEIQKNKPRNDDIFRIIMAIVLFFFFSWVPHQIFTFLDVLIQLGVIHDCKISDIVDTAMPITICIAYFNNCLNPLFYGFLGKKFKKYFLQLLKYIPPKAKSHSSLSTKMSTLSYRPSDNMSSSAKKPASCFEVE
# Sequence (P35351 whole entry): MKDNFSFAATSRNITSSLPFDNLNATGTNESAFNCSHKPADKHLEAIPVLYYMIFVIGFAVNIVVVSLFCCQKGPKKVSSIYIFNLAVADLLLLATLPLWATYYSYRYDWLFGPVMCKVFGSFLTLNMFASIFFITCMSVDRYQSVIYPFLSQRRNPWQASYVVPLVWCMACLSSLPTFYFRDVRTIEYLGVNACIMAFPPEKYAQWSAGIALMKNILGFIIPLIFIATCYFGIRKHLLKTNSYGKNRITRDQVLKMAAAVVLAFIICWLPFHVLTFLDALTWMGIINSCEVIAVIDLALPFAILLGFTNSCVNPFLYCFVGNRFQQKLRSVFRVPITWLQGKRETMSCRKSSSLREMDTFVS
# METHOD SUMMARY: Inhibition of [125I]angiotensin II specific binding to rat mesenteric arteries
# Type: protein assay

{"COMPOUND": "CCCCc1ncc(/C=C(\\Cc2ccoc2)C(=O)O)n1Cc1ccccc1Cl", "IC50, µM": 0.36}
{"COMPOUND": "CCCCc1ncc(CCC(=O)O)n1Cc1ccccc1Cl", "IC50, µM": 16.5}
{"COMPOUND": "CCCCc1ncc(/C=C(\\Cc2ccc(N(C)C)cc2)C(=O)O)n1Cc1ccccc1Cl", "IC50, µM": 14.6}
{"COMPOUND": "CCCCc1ncc(/C=C(\\Cc2ccccn2)C(=O)O)n1Cc1ccccc1Cl", "IC50, µM": 0.82}
{"COMPOUND": "CCCCc1ncc(/C=C(\\CCc2cccs2)C(=O)O)n1Cc1ccccc1Cl", "IC50, µM": 0.86}
{"COMPOUND": "CCCCc1ncc(/C=C\\C(=O)O)n1Cc1ccccc1Cl", "IC50, µM": 8.9}
{"COMPOUND": "CCCCc1ncc(/C=C(\\Cc2cc(OC)c(OC)c(OC)c2)C(=O)O)n1Cc1ccccc1Cl", "IC50, µM": 1.9}
{"COMPOUND": "CCCCc1ncc(/C=C(/C(=O)O)C(CCCC)c2cccs2)n1Cc1ccccc1Cl (stereo unspecified)", "IC50, µM": 18.7}
{"COMPOUND": "CCCCc1ncc(/C=C(\\C)C(=O)O)n1Cc1ccccc1Cl", "IC50, µM": 22.3}
{"COMPOUND": "CCCCc1ncc(/C=C(\\Cc2cccnc2)C(=O)O)n1Cc1ccccc1Cl", "IC50, µM": 0.3}
{"COMPOUND": "CCCCc1ncc(/C=C(\\Cc2ccc3ccccc3c2)C(=O)O)n1Cc1ccccc1Cl", "IC50, µM": 21.9}

====

# SYSTEM NAME: Angiotensin II receptor (Oryctolagus cuniculus)
# METHOD SUMMARY: Inhibition of angiotensin II induced vasoconstriction of rabbit aorta

{"SMILES STRUCTURE": "CCCCc1ncc(/C=C/C(=O)O)n1Cc1ccccc1Cl", "UNIT OF MEASUREMENT": "nM", "Kb": 14000}
{"SMILES STRUCTURE": "CCCCc1ncc(/C=C(\\Cc2cc(OC)cs2)C(=O)O)n1Cc1ccccc1Cl", "UNIT OF MEASUREMENT": "nM", "Kb": 30}
{"SMILES STRUCTURE": "CCCCc1ncc(/C=C(\\Cc2sccc2C)C(=O)O)n1Cc1ccccc1Cl", "UNIT OF MEASUREMENT": "nM", "Kb": 280}
{"SMILES STRUCTURE": "CCCCc1ncc(/C=C(\\Cc2ccc([N+](=O)[O-])cc2)C(=O)O)n1Cc1ccccc1Cl", "UNIT OF MEASUREMENT": "nM", "Kb": 310}

====

# SYSTEM NAME: Angiotensin II receptor (Oryctolagus cuniculus)
# METHOD SUMMARY: Inhibition of angiotensin II induced vasoconstriction of rabbit aorta

{"COMPOUND": "CCCCc1ncc(/C=C(\\C)C(=O)O)n1Cc1ccccc1Cl", "Kb": "970 nM"}
{"COMPOUND": "CCCCc1ncc(/C=C(\\Cc2ccc(Cl)c(Cl)c2)C(=O)O)n1Cc1ccccc1Cl", "Kb": "13700 nM"}
{"COMPOUND": "CCCCc1ncc(/C=C(\\Cc2ccc(O)cc2)C(=O)O)n1Cc1ccccc1Cl", "Kb": "470 nM"}
{"COMPOUND": "CCCCc1ncc(/C=C(\\Cc2cccnc2)C(=O)O)n1Cc1ccccc1Cl", "Kb": "180 nM"}
{"COMPOUND": "CCCCc1ncc(/C=C(\\Cc2c[nH]cn2)C(=O)O)n1Cc1ccccc1Cl", "Kb": "310 nM"}
{"COMPOUND": "CCCCc1ncc(/C=C(/Cc2ccco2)C(=O)O)n1Cc1ccccc1Cl", "Kb": "14400 nM"}
{"COMPOUND": "CCCCc1ncc(/C=C(\\Cc2ccc(N)cc2)C(=O)O)n1Cc1ccccc1Cl", "Kb": "320 nM"}
{"COMPOUND": "CCCCc1ncc(/C=C(\\Cc2cccc(OC)c2)C(=O)O)n1Cc1ccccc1Cl", "Kb": "270 nM"}
{"COMPOUND": "CCCCc1ncc(/C=C(/C(=O)O)C(Cc2ccccc2)c2cccs2)n1Cc1ccccc1Cl (configuration not stated)", "Kb": "610 nM"}
{"COMPOUND": "CCCCc1ncc(/C=C(\\Cc2ccc(C)s2)C(=O)O)n1Cc1ccccc1Cl", "Kb": "130 nM"}
{"COMPOUND": "CCCCc1ncc(/C=C(/C(=O)O)c2ccccc2)n1Cc1ccccc1Cl", "Kb": "600 nM"}
{"COMPOUND": "CCCCc1ncc(/C=C(\\Cc2ccc(OC)cc2)C(=O)O)n1Cc1ccccc1Cl", "Kb": "120 nM"}
{"COMPOUND": "CCCCc1ncc(/C=C(/C(=O)O)C(c2ccccc2)c2cccs2)n1Cc1ccccc1Cl (configuration not stated)", "Kb": "2300 nM"}
{"COMPOUND": "CCCCc1ncc(CCC(=O)O)n1Cc1ccccc1Cl", "Kb": "2800 nM"}
{"COMPOUND": "CCCCc1ncc(/C=C(\\Cc2ccc(OC)s2)C(=O)O)n1Cc1ccccc1Cl", "Kb": "30 nM"}
{"COMPOUND": "CCCCc1ncc(/C=C(/C(=O)O)C(C)c2ccccc2)n1Cc1ccccc1Cl (configuration not stated)", "Kb": "240 nM"}
{"COMPOUND": "CCCCc1ncc(/C=C\\C(=O)O)n1Cc1ccccc1Cl", "Kb": "810 nM"}
{"COMPOUND": "CCCCc1ncc(/C=C(\\Cc2ccncc2)C(=O)O)n1Cc1ccccc1Cl", "Kb": "170 nM"}
{"COMPOUND": "CCCCc1ncc(/C=C(\\Cc2ccc3c(c2)OCO3)C(=O)O)n1Cc1ccccc1Cl", "Kb": "130 nM"}
{"COMPOUND": "CCCCc1ncc(CCCCC(=O)O)n1Cc1ccccc1Cl", "Kb": "11000 nM"}
{"COMPOUND": "CCCCc1ncc(/C=C(\\Cc2cc(OC)c(OC)c(OC)c2)C(=O)O)n1Cc1ccccc1Cl", "Kb": "1700 nM"}
{"COMPOUND": "CCCCc1ncc(CCCCCC(=O)O)n1Cc1ccccc1Cl", "Kb": "7000 nM"}

====

# SYSTEM NAME: Angiotensin II receptor (Rattus norvegicus, UniProt P29089+P25095+P35351)
# METHOD SUMMARY: Inhibition of [125I]angiotensin II specific binding to rat mesenteric arteries
# Format: protein assay
Classification by IC50 | ranges: lower segment = under 0.8 µM, middle segment = from 0.8 µM up to 7 µM, upper segment = 7 µM and over

{"COMPOUND": "CCCCc1ncc(CCCCC(=O)O)n1Cc1ccccc1Cl", "ASSIGNED CATEGORY": "upper segment"}
{"COMPOUND": "CCCCc1ncc(/C=C(/Cc2ccco2)C(=O)O)n1Cc1ccccc1Cl", "ASSIGNED CATEGORY": "upper segment"}
{"COMPOUND": "CCCCc1ncc(CCCC(=O)O)n1Cc1ccccc1Cl", "ASSIGNED CATEGORY": "upper segment"}
{"COMPOUND": "CCCCc1ncc(/C=C(\\Cc2ccco2)C(=O)O)n1Cc1ccccc1Cl", "ASSIGNED CATEGORY": "middle segment"}
{"COMPOUND": "CCCCc1ncc(/C=C(\\Cc2ccc3c(c2)OCO3)C(=O)O)n1Cc1ccccc1Cl", "ASSIGNED CATEGORY": "lower segment"}
{"COMPOUND": "CCCCc1ncc(/C=C(\\CCc2ccccc2)C(=O)O)n1Cc1ccccc1Cl", "ASSIGNED CATEGORY": "middle segment"}
{"COMPOUND": "CCCCc1ncc(-c2ccccc2C(=O)O)n1Cc1ccccc1Cl", "ASSIGNED CATEGORY": "upper segment"}
{"COMPOUND": "CCCCc1ncc(/C=C(\\Cc2ccc(O)cc2)C(=O)O)n1Cc1ccccc1Cl", "ASSIGNED CATEGORY": "lower segment"}
{"COMPOUND": "CCCCc1ncc(/C=C/C(=O)O)n1Cc1ccccc1Cl", "ASSIGNED CATEGORY": "upper segment"}
{"COMPOUND": "CCCCc1ncc(/C(C)=C/C(=O)O)n1Cc1ccccc1Cl", "ASSIGNED CATEGORY": "middle segment"}
{"COMPOUND": "CCCCc1ncc(CCCCCC(=O)O)n1Cc1ccccc1Cl", "ASSIGNED CATEGORY": "upper segment"}
{"COMPOUND": "CCCCc1ncc(/C=C(\\Cc2ccncc2)C(=O)O)n1Cc1ccccc1Cl", "ASSIGNED CATEGORY": "lower segment"}
{"COMPOUND": "CCCCc1ncc(/C=C(\\Cc2ccc(O)c(O)c2)C(=O)O)n1Cc1ccccc1Cl", "ASSIGNED CATEGORY": "lower segment"}
{"COMPOUND": "CCCCc1ncc(/C=C(/C(=O)O)c2ccccc2)n1Cc1ccccc1Cl", "ASSIGNED CATEGORY": "upper segment"}
{"COMPOUND": "CCCCc1ncc(/C=C(/C(=O)O)C(Cc2ccccc2)c2cccs2)n1Cc1ccccc1Cl (stereo unspecified)", "ASSIGNED CATEGORY": "middle segment"}
{"COMPOUND": "CCCCc1ncc(-c2cccc(C(=O)O)c2)n1Cc1ccccc1Cl", "ASSIGNED CATEGORY": "upper segment"}
{"COMPOUND": "CCCCc1ncc(/C=C(\\Cc2c[nH]cn2)C(=O)O)n1Cc1ccccc1Cl", "ASSIGNED CATEGORY": "lower segment"}
{"COMPOUND": "CCCCc1ncc(/C=C(/C(=O)O)C(C)c2ccccc2)n1Cc1ccccc1Cl (stereo unspecified)", "ASSIGNED CATEGORY": "middle segment"}
